Item-by-item account of inhibition at 1 µM
# TARGET_OR_SYSTEM: M3 muscarinic receptors (Homo sapiens, UniProt P20309)
# Construct: expressed in transfected cells; host or cells: CHO cells
# Sequence (P20309 whole entry): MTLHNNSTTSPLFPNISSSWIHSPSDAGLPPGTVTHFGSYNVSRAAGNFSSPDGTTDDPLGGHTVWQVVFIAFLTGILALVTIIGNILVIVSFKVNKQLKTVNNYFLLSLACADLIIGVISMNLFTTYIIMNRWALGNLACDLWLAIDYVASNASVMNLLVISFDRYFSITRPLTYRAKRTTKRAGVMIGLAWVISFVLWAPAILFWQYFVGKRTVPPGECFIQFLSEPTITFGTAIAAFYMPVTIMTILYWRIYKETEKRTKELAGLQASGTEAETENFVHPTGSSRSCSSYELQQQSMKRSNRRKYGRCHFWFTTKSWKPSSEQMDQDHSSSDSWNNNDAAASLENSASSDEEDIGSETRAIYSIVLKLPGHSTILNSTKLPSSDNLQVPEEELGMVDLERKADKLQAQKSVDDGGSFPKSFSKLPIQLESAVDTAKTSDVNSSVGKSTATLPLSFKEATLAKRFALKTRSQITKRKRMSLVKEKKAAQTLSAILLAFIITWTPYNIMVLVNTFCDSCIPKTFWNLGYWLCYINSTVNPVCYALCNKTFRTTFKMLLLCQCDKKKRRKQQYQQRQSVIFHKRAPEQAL
# PROTOCOL_DESCRIPTION: Radioligand binding assay, muscarinic M3 receptors
# CONDITION_CONTEXT: test compound 1×10^−6 M
// return numeric value only (unit: %, not printed)

Cc1ccc2sc(S(=O)(=O)N[C@@H]3CCN(CCCc4noc5cc(F)ccc45)C3)cc2c1 [Compound 228] = 12
O=S(=O)(NCC1CCN(CCOc2cccc3c2OCCO3)C1)c1ccc(C(F)(F)F)cc1 (centres unmarked) [Compound 293] = 10
O=S(=O)(N[C@@H]1CCN(CCCc2noc3cc(F)ccc23)C1)c1ccc2cc(Cl)ccc2c1 [Compound 200] = 3
O=S(=O)(NC1CCN(CCCc2noc3cc(F)ccc23)C1)c1cc2ccccc2s1 (centres unmarked) [Compound 25] = 23
COc1ccc2cc(S(=O)(=O)N[C@H]3CCN(CCCc4noc5cc(F)ccc45)C3)ccc2c1 [Compound 231] = 22

*Q* Look up inhibition at 1 µM for this compound: O=S(=O)(NC1CCN(CCCc2noc3cc(F)ccc23)C1)c1cc2ccc(F)cc2s1 (centres unmarked) [Compound 234]
*A* 17

*Q* Returns the measured inhibition at 1 µM for the input compound. Input: O=S(=O)(N[C@H]1CCN(CCCc2noc3cc(F)ccc23)C1)c1cc2ccc(Cl)cc2s1 [Compound 199]
*A* 38

*Q* GET /values?readout=inhibition at 1 µM&item= COc1ccc2cc(S(=O)(=O)NC3CCN(CCCc4noc5cc(F)ccc45)C3)ccc2c1 (centres unmarked) [Compound 227]
*A* 13

====

# TARGET_OR_SYSTEM: receptors D4.4 (Homo sapiens, UniProt P21917)
# Sequence (P21917 whole entry): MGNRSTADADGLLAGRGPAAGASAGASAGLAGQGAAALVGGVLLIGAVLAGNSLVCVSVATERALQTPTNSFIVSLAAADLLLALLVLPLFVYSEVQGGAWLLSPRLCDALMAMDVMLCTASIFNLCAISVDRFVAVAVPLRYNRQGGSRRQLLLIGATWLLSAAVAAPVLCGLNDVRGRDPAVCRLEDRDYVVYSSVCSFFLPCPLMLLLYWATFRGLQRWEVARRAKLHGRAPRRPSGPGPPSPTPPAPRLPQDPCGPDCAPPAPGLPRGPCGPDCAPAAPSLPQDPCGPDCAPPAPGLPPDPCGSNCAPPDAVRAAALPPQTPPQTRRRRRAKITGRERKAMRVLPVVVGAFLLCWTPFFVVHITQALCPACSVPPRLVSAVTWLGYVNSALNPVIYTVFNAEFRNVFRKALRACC
# PROTOCOL_DESCRIPTION: Radioligand binding assay, dopaminergic D4 (D4.4) receptors
# CONDITION_CONTEXT: test compound 1×10^−6 M
# From the text: The specific ligand binding to the receptors is defined as the difference between the total binding and the non-specific binding determined in the presence of the excess of unlabelled ligand. The results are expressed as a percent of control specific binding ((measured specific binding/control specific binding)×100) and as a percent inhibition of control specific binding (100−((measured specific binding/control specific binding)×100)) obtained in the presence of the test compounds. […]
Entry class follows inhibition at 1 µM: low bin = under 70%, mid bin = from 70% up to 90%, high bin = 90% and over

O=S(=O)(NCC1CCN(CCOc2cccc3c2OCCO3)C1)c1ccc(Br)cc1 (stereo not drawn) = low bin
O=S(=O)(NCC1CCN(CCOc2cccc3c2OCCO3)C1)c1ccc(F)cc1 (stereo not drawn) = low bin

*Q* Which category fits this record: Cc1c(S(=O)(=O)NC2CCN(CCCc3noc4cc(F)ccc34)C2)sc2ccc(F)cc12 (stereo not drawn)
*A* mid bin

*Q* // return the class label for O=S(=O)(N[C@@H]1CCN(CCCc2noc3cc(F)ccc23)C1)c1ccc2ccccc2c1
*A* mid bin

*Q* GET /class?item= Cc1c(S(=O)(=O)N[C@H]2CCN(CCCc3noc4cc(F)ccc34)C2)sc2ccc(Cl)cc12
*A* mid bin

*Q* Textbook exercise: identify the category of the molecule given here, O=S(=O)(NCC1CCN(CCOc2cccc3c2OCCO3)C1)c1ccc(C(F)(F)F)cc1 (stereo not drawn) , according to its measured value.
*A* low bin

*Q* For O=S(=O)(NCC1CCN(CCOc2cccc3ccccc23)C1)c1ccc2ccccc2c1 (stereo not drawn) , which inhibition at 1 µM bin applies?
*A* low bin

====

# TARGET_OR_SYSTEM: serotonin transporter (SERT) (Homo sapiens, UniProt P31645)
# Construct: expressed in transfected cells; host or cells: CHO cells
# Sequence (P31645 whole entry): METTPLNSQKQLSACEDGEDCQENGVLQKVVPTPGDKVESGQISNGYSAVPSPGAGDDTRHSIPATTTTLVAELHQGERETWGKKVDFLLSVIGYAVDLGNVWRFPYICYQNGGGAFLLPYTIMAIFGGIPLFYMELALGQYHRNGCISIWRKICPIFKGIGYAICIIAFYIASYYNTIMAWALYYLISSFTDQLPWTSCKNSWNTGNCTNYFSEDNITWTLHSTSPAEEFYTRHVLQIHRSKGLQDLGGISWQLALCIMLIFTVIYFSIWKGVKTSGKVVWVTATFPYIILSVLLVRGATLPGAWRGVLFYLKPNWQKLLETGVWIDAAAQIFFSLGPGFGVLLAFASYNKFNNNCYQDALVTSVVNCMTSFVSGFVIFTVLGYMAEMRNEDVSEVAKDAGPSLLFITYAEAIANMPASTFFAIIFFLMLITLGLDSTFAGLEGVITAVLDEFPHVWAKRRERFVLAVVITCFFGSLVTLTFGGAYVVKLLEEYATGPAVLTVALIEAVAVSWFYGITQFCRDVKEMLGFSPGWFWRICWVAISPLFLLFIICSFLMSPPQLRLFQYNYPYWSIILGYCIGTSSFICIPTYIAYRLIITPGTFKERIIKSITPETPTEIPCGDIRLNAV
# PROTOCOL_DESCRIPTION: Radioligand binding assay, serotonin transporter (SERT)
# CONDITION_CONTEXT: binding assay, test compound 1×10^−6 M
Label No if inhibition at 1 µM falls below 60%; label Yes in every other case.

Before answering, review these 4 worked examples.
O=S(=O)(NCC1CCN(CCOc2nsc3ccccc23)C1)c1cccc(O)c1 (centres unmarked) [Compound 43] = No
CC1(C)Cc2cccc(OCCN3CCC(NS(=O)(=O)c4cccc(O)c4)C3)c2O1 (centres unmarked) [Compound 107] = No
O=S(=O)(NCC1CCN(CCOc2cccc3ccccc23)C1)c1ccc2cc(Cl)ccc2c1 (centres unmarked) [Compound 270] = No
O=S(=O)(N[C@H]1CCN(CCCc2noc3cc(F)ccc23)C1)c1cc2ccc(Cl)cc2s1 [Compound 199] = No

*Q* hey, is inhibition at 1 µM for this one >= 60%? Cc1cc(S(=O)(=O)NC2CCN(CCCc3noc4cc(F)ccc34)C2)c(C)s1 (centres unmarked) [Compound 221]
*A* Yes

*Q* Determine whether this compound has inhibition at 1 µM no lower than 60%: O=S(=O)(NCC1CCN(CCOc2cccc3c2OCCO3)C1)c1cccc(O)c1 (centres unmarked) [Compound 303]
*A* Yes

*Q* Would you say O=S(=O)(NCC1CN(CCCc2noc3cc(F)ccc23)C1)c1ccc(Cl)s1 [Compound 155] shows inhibition at 1 µM at minimum 60%?
*A* No

*Q* # check: inhibition at 1 µM of O=S(=O)(NC1CCN(CCCc2c[nH]c3ccc(Cl)cc23)C1)c1ccc(Cl)cc1 (centres unmarked) [Compound 85] is greater than or equal to 60%
*A* Yes

*Q* Determine whether this compound has inhibition at 1 µM no lower than 60%: O=S(=O)(NC1CN(CCOc2cccc3[nH]ccc23)C1)c1cccc2ccccc12 [Compound 49]
*A* No

*Q* Does Cn1ccc2c(S(=O)(=O)NCC3CN(CCOc4cccc5ccccc45)C3)cccc21 [Compound 170] have a reported inhibition at 1 µM of at least 60%?
*A* Yes

====

# TARGET_OR_SYSTEM: dopaminergic receptors D2 (Homo sapiens, UniProt P14416)
# Sequence (P14416 whole entry): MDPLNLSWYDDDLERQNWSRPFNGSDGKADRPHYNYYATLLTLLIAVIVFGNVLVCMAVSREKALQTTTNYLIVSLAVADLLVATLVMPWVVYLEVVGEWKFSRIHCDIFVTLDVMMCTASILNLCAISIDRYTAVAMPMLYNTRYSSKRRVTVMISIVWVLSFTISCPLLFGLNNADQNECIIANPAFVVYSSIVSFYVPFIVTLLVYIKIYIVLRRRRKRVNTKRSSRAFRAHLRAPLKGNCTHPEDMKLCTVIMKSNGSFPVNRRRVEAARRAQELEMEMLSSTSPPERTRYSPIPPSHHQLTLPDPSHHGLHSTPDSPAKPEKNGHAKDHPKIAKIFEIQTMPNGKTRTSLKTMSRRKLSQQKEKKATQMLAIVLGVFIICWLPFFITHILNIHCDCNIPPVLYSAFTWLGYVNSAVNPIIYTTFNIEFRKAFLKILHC
# PROTOCOL_DESCRIPTION: Radioligand binding assay, dopaminergic D2 receptors
# CONDITION_CONTEXT: binding assay, test compound 1×10^−6 M
Overview of recorded inhibition at 1 µM for various compounds
Quick reminder: number only, in %, skip the unit.

Reference set (3 entries):
O=S(=O)(NCC1CN(CCOc2cccc3ccccc23)C1)c1ccc2cc(Cl)ccc2c1 = 66
Cn1ccc2cc(S(=O)(=O)NCC3CCN(CCOc4cccc5c4OCCO5)C3)ccc21 (stereo not shown) = 57
O=S(=O)(NC1CCN(CCCc2noc3cc(F)ccc23)C1)c1cc2ccc(F)cc2s1 (stereo not shown) = 99

Below: the item to evaluate.
*Q* Sample O=S(=O)(NCC1CN(CCCc2noc3cc(F)ccc23)C1)c1cccc(Cl)c1 — what was its inhibition at 1 µM?
*A* 76

====

# TARGET_OR_SYSTEM: serotonin transporter (SERT) (Homo sapiens)
# Construct: expressed in transfected cells; host or cells: CHO cells
# PROTOCOL_DESCRIPTION: Radioligand binding assay, serotonin transporter (SERT)
# CONDITION_CONTEXT: binding assay, test compound 1×10^−6 M
MEASUREMENT_NAME: inhibition at 1 µM (%)
Write the answer as a number in %, unit excluded.

Worked examples, 8 molecules total:
O=S(=O)(NCC1CN(CCCc2noc3cc(F)ccc23)C1)c1cccc(O)c1 = 22
O=S(=O)(NC1CCN(CCCc2noc3cc(F)ccc23)C1)c1ccc(Cl)c(F)c1 (centres unmarked) = -6
O=S(=O)(NCC1CN(CCOc2cccc3c2OCCO3)C1)c1ccc(Cl)s1 = 38
O=S(=O)(N[C@@H]1CCN(CCCc2noc3cc(F)ccc23)C1)c1cc2ccccc2s1 = 42
O=S(=O)(NCC1CN(CCOc2cccc3c2OCCO3)C1)c1csc2ccccc12 = 31
O=S(=O)(NCC1CN(CCOc2cccc3ccccc23)C1)c1ccc2cc(Cl)ccc2c1 = 111
O=S(=O)(N[C@H]1CCN(CCCc2noc3cc(F)ccc23)C1)c1cc2ccccc2o1 = 35
O=S(=O)(NCC1CCN(CCOc2cccc3ccccc23)C1)c1csc2ccccc12 (centres unmarked) = 84

For the next question, use this molecule.
*Q* # get_value(readout='inhibition at 1 µM', item= O=S(=O)(NC1CCN(CCCc2c[nH]c3ccc(Cl)cc23)C1)c1cccc(F)c1 (centres unmarked) )
*A* 100

====

Quick reference: 5-HT7 [%] of the listed items.
# TARGET_OR_SYSTEM: 5-HT7 receptor (Homo sapiens, UniProt P34969)
# Construct: purchased PerkinElmer
# Sequence (P34969 whole entry): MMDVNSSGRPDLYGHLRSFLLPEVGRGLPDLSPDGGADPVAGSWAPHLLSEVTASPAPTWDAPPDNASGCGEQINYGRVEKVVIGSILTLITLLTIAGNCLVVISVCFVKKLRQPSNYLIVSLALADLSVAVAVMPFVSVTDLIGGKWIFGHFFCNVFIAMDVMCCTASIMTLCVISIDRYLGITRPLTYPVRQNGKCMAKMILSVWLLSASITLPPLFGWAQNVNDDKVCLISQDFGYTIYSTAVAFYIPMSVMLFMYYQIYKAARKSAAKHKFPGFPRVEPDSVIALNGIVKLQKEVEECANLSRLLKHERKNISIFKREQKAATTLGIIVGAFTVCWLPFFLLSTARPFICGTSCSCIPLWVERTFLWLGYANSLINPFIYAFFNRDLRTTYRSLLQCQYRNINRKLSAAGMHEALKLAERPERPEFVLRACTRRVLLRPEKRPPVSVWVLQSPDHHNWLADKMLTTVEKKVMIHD
# PROTOCOL_DESCRIPTION: Radioligand binding assay, serotoninergic 5-HT7 receptors;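 note: test compound at 1 µM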
# CONDITION_CONTEXT: binding assay result in %, Table 5a
Quick note: number first, unit second.

O=S(=O)(NCC1CCN(CCCc2noc3cc(F)ccc23)CC1)c1ccc2ccccc2c1 = 94%
O=S(=O)(NC1CN(CCOc2cccc3c2OCCO3)C1)c1cccc(Cl)c1 = 91%
O=S(=O)(NC1CN(CCOc2cccc3c2OCCO3)C1)c1cccc2ccccc12 = 100%

*Q* Given the molecule Cc1cccc(S(=O)(=O)NC2CCN(CCCc3noc4cc(F)ccc34)CC2)c1 , what is its reported 5-HT7 [%]?
*A* 100%

*Q* GET /values?readout=5-HT7 [%]&item= Cc1cccc(S(=O)(=O)NC2CN(CCOc3cccc4c3OCCO4)C2)c1
*A* 99%

*Q* Query (molecule): O=S(=O)(NC1CCN(CCCc2noc3cc(F)ccc23)CC1)c1ccc2ccccc2c1 ; field requested: 5-HT7 [%]
*A* 98%

Attribution: patent US20140135310A1
